- TEST DETAILS: GFP drop in mixed WT/humanized-ribosome E. coli culture – GFP/RFP fluorescence, OD600, single point, bacterial rRNA inhibitor project, primary screen (AID 720706)
- RUN PARAMETERS: E. coli WT GFP vs humanized-ribosome RFP mutants, 24 h; measured here: OD600 growth, DMSO median 0, no signal -100
Hit rate of the full screen: of about 350,000 compounds, about 5,500 (1.6%) were called active. The sample holds actives, similar compounds and a random draw of the others, so the mix is not that of the screen.
EXPERIMENTAL READOUT: OD600 change

C[C@@H]1CN([C@@H](C)CO)S(=O)(=O)c2ccc(/C=C/c3ccccc3)cc2O[C@@H]1CN(C)C(=O)Nc1cc(F)ccc1F: 7.09%
CCNc1ccc(C(=O)OCC(=O)N2c3ccccc3NC(=O)C2(C)C)cc1[N+](=O)[O-]: -16.2%
O=C(Nc1ccc(Cl)c(Cl)c1)c1ccccc1NC(=O)C1CC=CCC1C(=O)O (stereo not drawn): -49.6%
O=C(O)c1ccc(-n2nc(-c3ccccc3)c3ccccc3c2=O)cc1: -9.56%
O=C(C1CC1)N1CCCCN2[C@H](CO)[C@H](c3ccc(-c4cccc(F)c4)cc3)[C@H]2C1: -8.76%
Cc1noc(C)c1NC(=O)Nc1ccc2c(c1)C(=O)N([C@@H](C)CO)C[C@H](C)[C@H](CN(C)CC1CCCCC1)O2: 1.93%
CN(C)CCOc1ccc(Cl)cc1C(C)(C)C: 4.96%
O=C(Nc1ccc2c(c1)OCO2)C1CC1(Cl)Cl (stereo not drawn): 3.17%
O=C(Cc1ccc(Cl)cc1)c1ccccc1: 2.91%
O=C(NCC[C@@H]1CC[C@@H](NC(=O)c2ccccc2F)[C@H](CO)O1)c1ccc2c(c1)OCO2: 0.175%
Cc1cc(-c2ccc(C)c(S(=O)(=O)NC(C)Cc3ccco3)c2)on1 (stereo not drawn): -21.1%
O=C(C1CCCC1)N1CC(=O)N2[C@H](CO)[C@H](c3ccc(Br)cc3)[C@@H]2C1: -0.944%
O=C(Nc1ccccc1)N1CCCCN2[C@H](CO)[C@@H](c3ccc(-c4ccccc4F)cc3)[C@H]2C1: -71.8%
COCc1cn(CC[C@H]2CC[C@H](NC(=O)c3ccncc3)[C@H](CO)O2)nn1: 6.54%
O=c1[nH]n2c(-c3ccccc3)nc(O)c2c2ccccc12: -7.74%
CC[C@@H]1CC=CC[C@H](C)Oc2ccccc2C(=O)N(C)[C@H](Cc2ccccc2)C(=O)N1 (mixture of isomers): -18.3%
Cc1cc(C(=O)OCC(=O)N2c3ccccc3NC(=O)C2(C)C)c(C)n1-c1ccccc1: -33.1%
CNS(=O)(=O)c1cccc(C(=O)OCC(=O)N2c3ccccc3NC(=O)C2(C)C)c1: 2.51%
CCC(C)N(C)C1CCN(C(=S)Nc2ccc(OC)cc2)CC1 (stereo not drawn): -2.86%
O=S(=O)(NC[C@H]1[C@H](c2ccccc2)[C@H](CO)N1CC1CC1)c1ccccc1: -2.41%
COCC#Cc1ccc([C@@H]2[C@@H](CO)N3C(=O)CN(C(=O)Nc4cc(F)ccc4F)C[C@@H]23)cc1: -5.07%
Cc1cccc(NC(=O)CCn2c(=O)oc3ccccc32)c1: 2.74%
OCCN(Cc1ccccc1)Cc1ccc(Cl)cc1: -9.66%
